Test system: RAW264.7
assay_details: Suppression of LPS-induced NO production in mouse RAW264.7 cells by fluorometric assay
Format: functional, cell-based
condition_info: raw264.7
As shown below, each of these compounds has a reported IC50 value.
measured_property: IC50

compound="CCOC(=O)C1=CCCCC1S(=O)(=O)C(C)c1ccc(F)cc1Cl (single isomer, unassigned; (-))" meas_value="1.3 µM"
compound="CCOC(=O)C1=CCCCC1S(=O)(=O)Cc1ccccc1Cl (single isomer, unassigned; (+))" meas_value="0.011 µM"
compound="CCOC(=O)C1=CCCCC1S(=O)(=O)C(C)c1ccc(F)cc1Cl (stereo in doubt; 22b)" meas_value="0.102 µM"
compound="CCOC(=O)C1=CCCCC1S(=O)(=O)Cc1ccc(F)cc1Cl (single isomer, unassigned; (+))" meas_value="0.0057 µM"
